MEASURED ON: muscarinic receptors
MEASUREMENT PROTOCOL: Radio ligand binding, displacement of muscarinic agonist 3H-Oxotremorine-M (3H-OXO-M)
Parameters: species or system rat (Hooded Lister)
EXPERIMENTAL PARAMETERS: displacement of 2 nM 3H-OXO-M, rat cerebral cortex homogenate, 37° C., 30 min, 2 mM magnesium chloride
pIC50: −log10 of the molar value. Structures can show the parent of a compound that is named as a salt.
Everything with pIC50 lower than 7 is condition not met; everything else, including exactly 7, is condition met.

Use the examples below as a reference point.
[[record]]
compound = "C#CCON=C(C)C1CN2CCC1C2 (mixture of isomers) [E 15, hydrochloride salt]"
assigned_label = "condition not met"

[[record]]
compound = "CON=C[C@H]1C[C@@H]2CCN(C1)C2 (relative stereo) [E 23, hydrochloride salt]"
assigned_label = "condition not met"

[[record]]
compound = "CON=C(C)C12CCCN(CC1)C2 (racemic) [E 6, hydrochloride salt]"
assigned_label = "condition met"

[[record]]
compound = "C=CCON=C[C@@H]1CN2CC[C@@H]1C2 (relative stereo) [E 22, oxalate salt]"
assigned_label = "condition not met"

[[record]]
compound = "CCC(=NOC)C1CN2CCC1C2 (mixture of isomers) [E 16, hydrochloride salt]"
assigned_label = "condition not met"

[[record]]
compound = "CON=C[C@@H]1CN2CC[C@@H]1C2 (relative stereo) [E 7, oxalate salt]"
assigned_label = "condition met"

[[record]]
compound = "CON=C(C)C1CC2CCN(C2)C1 (racemic) [E 24, hydrochloride salt]"
assigned_label = "condition not met"

[[record]]
compound = "CON=C(C)C12CCN(CC1)C2 [E 20, oxalate salt]"
assigned_label = "condition met"


Exam item: decide whether the reported pIC50 for C#CCON=CC12CCN(CC1)C2 [E 21, oxalate salt] is at least 7.
condition not met

Exam item: decide whether the reported pIC50 for C#CCON=CC1CN2CCC1CC2 (racemic) [E 17, hydrochloride salt] is at least 7.
condition not met

Exam item: decide whether the reported pIC50 for C#CCON=C[C@@H]1CN2CC[C@@H]1C2 (relative stereo) [E 9, oxalate salt] is at least 7.
condition met

====

MEASURED ON: muscarinic receptors
Type: binding, rat (Hooded Lister)
EXPERIMENTAL PARAMETERS: displacement of 0.27 nM 3H-QNB, rat cerebral cortex homogenate, 37° C., 30 min
Where a name gives a salt, the structure may show the parent alone.
Consider the following partition of reported IC50 into named classes: label 0 = under 4 µM, label 1 = from 4 µM up to 9 µM, label 2 = 9 µM and over

[[record]]
molecule = "CON=C[C@@H]1CN2CC[C@@H]1C2 (relative stereo) [E 7, oxalate salt]"
assigned_label = "label 1"

[[record]]
molecule = "CON=C(C)C1CN2CCC1CC2 (mixture of isomers) [E 3, hydrochloride salt]"
assigned_label = "label 0"

[[record]]
molecule = "C=CCON=C[C@@H]1CN2CC[C@@H]1C2 (relative stereo) [E 22, oxalate salt]"
assigned_label = "label 1"

[[record]]
molecule = "CON=CC12CCCN(CC1)C2 (mixture of isomers) [E 1, hydrochloride salt]"
assigned_label = "label 1"


Form: Item = CON=CC12CCN(CC1)C2 [E 19, hydrochloride salt] ; Class = ?
label 2

Form: Item = CON=CC1CN2CCC1CC2 (racemic) [E 2, hydrochloride salt] ; Class = ?
label 2

Form: Item = CCON=C[C@@H]1CN2CC[C@@H]1C2 (relative stereo) [E 8, oxalate salt] ; Class = ?
label 1

Form: Item = CCC(=NOC)C1CN2CCC1C2 (mixture of isomers) [E 16, hydrochloride salt] ; Class = ?
label 0

Form: Item = CON=C(C)C12CCN(CC1)C2 [E 20, oxalate salt] ; Class = ?
label 2

Form: Item = C#CCON=C[C@@H]1CN2CC[C@@H]1C2 (relative stereo) [E 9, oxalate salt] ; Class = ?
label 0
